assay: Tmax in Wistar rat at 10 mg/kg, po; type: ADME, organism-based; design: dose 10 mg/kg, route oral; details: in vivo
assay.readout: Tmax (h)
The figure you give is taken to be in h; do not add the unit.

I would be grateful if you could share the reported Tmax for CCCNS(=O)(=O)Nc1ncnc(OCCOc2ncc(Br)cn2)c1-c1ccc(Br)cc1 .
6

* * *

assay: AUC (0 to infinity) in Wistar rat at 10 mg/kg, po; format: ADME, organism-based; parameters: time infinity, dose 10 mg/kg, route oral; details: plasma
assay.readout: AUC(0-inf) (ng·h/mL)
Give a bare numeral; the unit ng·h/mL is implied.

Requested read-out: AUC(0-inf). Entry: CCCNS(=O)(=O)Nc1ncnc(OCCOc2ncc(Br)cn2)c1-c1ccc(Br)cc1
18500

* * *

assay: Oral bioavailability in Wistar rat at 10 mg/kg; format: ADME, organism-based; conditions: in vivo
assay.readout: bioavailability

Fill in the blank: the reported bioavailability of CCCNS(=O)(=O)Nc1ncnc(OCCOc2ncc(Br)cn2)c1-c1ccc(Br)cc1 is ____.
69%

* * *

experiment: Clearance in beagle dog at 1 mg/kg, iv; format: ADME, organism-based, Canis lupus familiaris; set-up: dose 1 mg/kg, route intravenous; conditions: in vivo
assay.readout: clearance (mL/min/kg)
Give just the numeric value; mL/min/kg need not be written.

Which clearance value is on record for CCCNS(=O)(=O)Nc1ncnc(OCCOc2ncc(Br)cn2)c1-c1ccc(Br)cc1 ?
5.4

* * *

Biological target: Endothelin-1 receptor (Homo sapiens, UniProt P25101)
Sequence (P25101 whole entry): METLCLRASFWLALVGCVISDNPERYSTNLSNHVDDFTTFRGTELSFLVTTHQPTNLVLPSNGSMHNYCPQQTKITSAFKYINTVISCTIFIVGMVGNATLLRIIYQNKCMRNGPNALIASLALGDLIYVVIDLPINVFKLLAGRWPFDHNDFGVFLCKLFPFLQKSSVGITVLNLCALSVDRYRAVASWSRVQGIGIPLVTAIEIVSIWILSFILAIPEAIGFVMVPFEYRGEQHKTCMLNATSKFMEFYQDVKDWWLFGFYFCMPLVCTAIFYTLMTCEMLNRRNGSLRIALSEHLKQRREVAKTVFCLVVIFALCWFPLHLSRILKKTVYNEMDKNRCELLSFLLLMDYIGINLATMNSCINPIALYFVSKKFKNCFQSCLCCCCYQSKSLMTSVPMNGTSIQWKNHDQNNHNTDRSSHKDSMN
Test: Displacement of [I125]ET1 from recombinant ETA receptor expressed in CHO cells after 2 hrs by TopCount analysis
pIC50: −log10 of the molar value.
# binarize pIC50: threshold 8 inclusive, high side met, low side not met

COc1ccccc1Oc1c(NS(=O)(=O)CCc2ccccc2)nc(-c2ncccn2)nc1OCCOc1ncc(SC)cn1 met

Form field: pIC50 at least 8? Entry: COc1nc(NS(=O)(=O)NCc2ccccc2)c(Oc2ccccc2OC)c(OCCOc2ncc(Br)cn2)n1
not met

Also need CN(Cc1ccccc1)S(=O)(=O)Nc1ncnc(OCCOc2ncc(Br)cn2)c1-c1ccc(Br)cc1 , thanks.
met

* * *

In this section, each of the compounds is paired with its reported IC50.
biological target: UniProt:P25101; assay: Displacement of [I125]ET1 from recombinant ETA receptor expressed in CHO cells after 2 hrs by TopCount analysis
Where a SMILES comes first, the peptide text is derived from it. [ ]: non-standard residue; d: D form.
Please provide the amount together with its unit, number first.

Guide cases for IC50, answers given:
compound	IC50
CCCS(=O)(=O)Nc1ncnc(OCCOc2ncc(Br)cn2)c1-c1ccc(Br)cc1	2.2 nM
CCCCNS(=O)(=O)Nc1nc(-c2ncccn2)nc(OCCOc2ncc(Br)cn2)c1Oc1ccccc1OC	1.7 nM
COc1ccccc1Oc1c(NS(=O)(=O)NCc2ccccc2)nc(N2CCOCC2)nc1OCCOc1ncc(Br)cn1	1.4 nM
O=S(=O)(NCc1ccccc1)Nc1ncnc(OCCOc2ncc(Br)cn2)c1-c1ccc(Br)cc1	1.6 nM
COc1ccccc1Oc1c(NS(C)(=O)=O)nc(-c2ncccn2)nc1OCCOc1ncccn1	739 nM

// lookup IC50 for NS(=O)(=O)Nc1ncnc(OCCOc2ncc(Br)cn2)c1-c1ccc(Br)cc1
3.4 nM

// repeat for O=S(=O)(NCc1ccccc1)Nc1ncnc(OCCOc2ncc(Br)cn2)c1-c1ccc(Cl)cc1 and report
1.4 nM

Moving on to the next compound: CC(C)C[C@@H]1NC(=O)[C@@H](C(C)C)NC(=O)[C@@H]2CCCN2C(=O)[C@@H](CC(=O)O)NC(=O)[C@@H](Cc2c[nH]c3ccccc23)NC1=O [BQ-123] (cyclo(L[dW][dD]P[dV]))
20.5 nM

Next record, please: COc1ccccc1Oc1c(NS(=O)(=O)NCc2ccccc2)nc(-c2ccncc2)nc1OCCOc1ncc(Br)cn1
3.4 nM
